B1: EPB41L3 (parent)
chain: KKFLTLGSKFRYSGRTQAQTRRAS

variants of: B1; assay: protein stability index of a GFP-peptide fusion (GPS, HEK-293T) (PSI 1-6); higher = more stable; conditions: c terminus: a fixed tail appended;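 also: lentivirally expressed fusions sorted by FACS into six bins by GFP to DsRed ratio, PSI derived from sequencing read proportions per bin multiplied by bin number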
Param threshold (3) applies to protein stability index; output YES when value >= threshold, NO when value < threshold.

{"QUERY SEQUENCE": "KKFLTLGSKFRYSGITQAQTRRAS [R15I]", "LABEL VALUE": "NO"}
{"QUERY SEQUENCE": "KKFLTLGSKFRYSGRTQAQTDRAS [R21D]", "LABEL VALUE": "NO"}
{"QUERY SEQUENCE": "MKFLTLGSKFRYSGRTQAQTRRAS [K1M]", "LABEL VALUE": "YES"}
{"QUERY SEQUENCE": "KKFLILGSKFRYSGRTQAQTRRAS [T5I]", "LABEL VALUE": "NO"}

Let's switch to this variant now.
Decide: is the reported value of protein stability index for KKFLTLGSKFRYSGRTQAQTRRLS [A23L] equal to or greater than 3?
YES
